# experimentalSystem: T. maritima CopA (WT CopA) (Thermotoga maritima, UniProt Q9WYF3)
# Sequence (Q9WYF3 1-726): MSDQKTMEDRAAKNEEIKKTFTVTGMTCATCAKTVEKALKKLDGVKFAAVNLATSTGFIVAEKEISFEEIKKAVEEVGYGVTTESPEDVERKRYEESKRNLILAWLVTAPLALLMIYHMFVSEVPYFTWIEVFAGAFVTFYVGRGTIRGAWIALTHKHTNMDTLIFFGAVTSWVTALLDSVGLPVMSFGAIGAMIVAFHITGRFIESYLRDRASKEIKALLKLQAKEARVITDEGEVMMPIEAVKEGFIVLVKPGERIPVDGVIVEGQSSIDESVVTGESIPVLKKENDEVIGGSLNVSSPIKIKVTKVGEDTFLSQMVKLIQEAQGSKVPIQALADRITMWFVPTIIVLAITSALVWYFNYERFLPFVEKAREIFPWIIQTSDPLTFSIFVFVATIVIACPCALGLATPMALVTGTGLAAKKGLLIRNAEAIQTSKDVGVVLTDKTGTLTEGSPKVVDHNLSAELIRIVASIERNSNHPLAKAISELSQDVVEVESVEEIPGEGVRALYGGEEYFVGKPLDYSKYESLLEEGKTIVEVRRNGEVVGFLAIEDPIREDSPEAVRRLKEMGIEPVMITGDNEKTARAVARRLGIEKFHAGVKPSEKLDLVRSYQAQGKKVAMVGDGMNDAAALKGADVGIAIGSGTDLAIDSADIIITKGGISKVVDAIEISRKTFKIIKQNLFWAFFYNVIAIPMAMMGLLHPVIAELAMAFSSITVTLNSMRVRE
resultType: pKd
Units for pKd: none; it is -log10 of a concentration expressed in mol/L.

Give recorded pKd with T. maritima CopA (WT CopA) (Thermotoga maritima, UniProt Q9WYF3) for the following compound: O=P(O)(O)O
5.48
